Data credit: patent US11873291B2

Measured IC50 of individual entries
# System: cGAS activity in Reporter THP1 cell line
# TEST_METHOD_NOTES: Cellular assay to measure cGAS activity: ISRE-Gaussia luciferase reporter THP1 cells transfected with ISD
# Type: cell-based
# CONDITION_SET: Homo sapiens, THP-1, Table 4, Gaussia luciferase

[
  {
    "COMPOUND": "O=C(O)CCOCC1CC(O)CN(c2cc(-n3ccnc3)c3ccc(Cl)c(Cl)c3n2)C1 (stereo not shown)",
    "IC50": "> 10 µM"
  },
  {
    "COMPOUND": "O=C(O)CCO[C@@H]([C@@H]1CCCN1c1cc(-n2ccnc2)c2ccc(Cl)c(Cl)c2n1)C(F)(F)F",
    "IC50": "2 to 10 µM"
  },
  {
    "COMPOUND": "COC(=O)[C@@H]1C[C@H](C)CN1c1cc(-n2ccnc2)c2ccc(Cl)c(Cl)c2n1",
    "IC50": "< 2 µM"
  },
  {
    "COMPOUND": "O=C(O)COC[C@@H]1CN(c2cc(-n3ccnc3)c3ccc(Cl)c(Cl)c3n2)CCO1",
    "IC50": "> 10 µM"
  },
  {
    "COMPOUND": "COC(=O)[C@@H]1[C@@H](O)CCN1c1cc(-n2ccnc2)c2ccc(Cl)c(Cl)c2n1",
    "IC50": "< 2 µM"
  },
  {
    "COMPOUND": "O=C(O)CCOC[C@@H]1CCN1c1cc(-n2ccnc2)c2ccc(Cl)c(Cl)c2n1",
    "IC50": "< 2 µM"
  },
  {
    "COMPOUND": "O=C(O)CCOC[C@H](O)[C@@H]1CCCN1c1cc(-n2ccnc2)c2ccc(Cl)c(Cl)c2n1",
    "IC50": "2 to 10 µM"
  },
  {
    "COMPOUND": "O=C(O)CCOCC1CN(c2cc(-n3ccnc3)c3ccc(Cl)c(Cl)c3n2)C1",
    "IC50": "> 10 µM"
  },
  {
    "COMPOUND": "COC(=O)CCC[C@@H]1CCCN1c1cc(-n2ccnc2)c2ccc(Cl)c(Cl)c2n1",
    "IC50": "< 2 µM"
  },
  {
    "COMPOUND": "O=C(O)[C@@H]1C[C@@H]2C[C@@H]2N1c1cc(-n2ccnc2)c2ccc(Cl)c(Cl)c2n1",
    "IC50": "< 2 µM"
  },
  {
    "COMPOUND": "O=C(O)CCOCCC[C@@H]1CCCN1c1cc(-n2ccnc2)c2ccc(Cl)c(Cl)c2n1",
    "IC50": "< 2 µM"
  },
  {
    "COMPOUND": "CC(C)(C)OC(=O)[C@@H]1[C@@H](O)CCN1c1cc(-n2ccnc2)c2ccc(Cl)c(Cl)c2n1",
    "IC50": "< 2 µM"
  },
  {
    "COMPOUND": "OCCCOCC[C@@H]1CCCN1c1cc(-n2ccnc2)c2ccc(Cl)c(Cl)c2n1",
    "IC50": "2 to 10 µM"
  },
  {
    "COMPOUND": "O=C(O)CCCCOC[C@@H]1CCCN1c1cc(-n2ccnc2)c2ccc(Cl)c(Cl)c2n1",
    "IC50": "< 2 µM"
  },
  {
    "COMPOUND": "CC1CCN(c2cc(-n3ccnc3)c3ccc(Cl)c(Cl)c3n2)C1C(=O)O (stereo not shown)",
    "IC50": "< 2 µM"
  },
  {
    "COMPOUND": "COC(=O)/C=C/C[C@@H]1CCCN1c1cc(-n2ccnc2)c2ccc(Cl)c(Cl)c2n1",
    "IC50": "< 2 µM"
  },
  {
    "COMPOUND": "COC(=O)[C@@H]1[C@@H]2[C@H](CN1c1cc(-n3ccnc3)c3ccc(Cl)c(Cl)c3n1)C2(C)C",
    "IC50": "2 to 10 µM"
  },
  {
    "COMPOUND": "O=C(O)[C@@H]1[C@@H]2C[C@@H]2CN1c1cc(-n2ccnc2)c2ccc(Cl)c(Cl)c2n1",
    "IC50": "2 to 10 µM"
  },
  {
    "COMPOUND": "COC(=O)[C@@H]1[C@@H](OC(C)=O)CCN1c1cc(-n2ccnc2)c2ccc(Cl)c(Cl)c2n1",
    "IC50": "< 2 µM"
  },
  {
    "COMPOUND": "O=C(O)CCOCC(Cc1ccccc1)Nc1cc(-n2ccnc2)c2ccc(Cl)c(Cl)c2n1 (stereo not shown)",
    "IC50": "2 to 10 µM"
  },
  {
    "COMPOUND": "COC(=O)[C@@H]1CCCN1c1cc(-n2ccnc2)c2ccc(Cl)c(Cl)c2n1",
    "IC50": "2 to 10 µM"
  },
  {
    "COMPOUND": "O=C(O)/C=C/C[C@@H]1CCCN1c1cc(-n2ccnc2)c2ccc(Cl)c(Cl)c2n1",
    "IC50": "< 2 µM"
  },
  {
    "COMPOUND": "O=C(O)C1COCCN1c1cc(-n2ccnc2)c2ccc(Cl)c(Cl)c2n1 (stereo not shown)",
    "IC50": "> 10 µM"
  },
  {
    "COMPOUND": "NS(=O)(=O)CCNc1cc(-n2ccnc2)c2ccc(Cl)c(Cl)c2n1",
    "IC50": "< 2 µM"
  },
  {
    "COMPOUND": "COC(=O)[C@@H]1C[C@@H](C)CN1c1cc(-n2ccnc2)c2ccc(Cl)c(Cl)c2n1",
    "IC50": "< 2 µM"
  },
  {
    "COMPOUND": "COC(=O)CCNC[C@@H]1CCCN1c1cc(-n2ccnc2)c2ccc(Cl)c(Cl)c2n1",
    "IC50": "> 10 µM"
  },
  {
    "COMPOUND": "O=C(O)COCC[C@@H]1CCCN1c1cc(-n2ccnc2)c2ccc(Cl)c(Cl)c2n1",
    "IC50": "< 2 µM"
  },
  {
    "COMPOUND": "NS(=O)(=O)C1CCCN(c2cc(-n3ccnc3)c3ccc(Cl)c(Cl)c3n2)C1 (stereo not shown)",
    "IC50": "2 to 10 µM"
  },
  {
    "COMPOUND": "COC(=O)C1C(C)CCN1c1cc(-n2ccnc2)c2ccc(Cl)c(Cl)c2n1 (stereo not shown)",
    "IC50": "2 to 10 µM"
  },
  {
    "COMPOUND": "COC(=O)[C@@H]1CC2C[C@@H]2N1c1cc(-n2ccnc2)c2ccc(Cl)c(Cl)c2n1 (stereo partly shown)",
    "IC50": "< 2 µM"
  },
  {
    "COMPOUND": "CCCCOC(=O)[C@@H]1[C@@H](O)CCN1c1cc(-n2ccnc2)c2ccc(Cl)c(Cl)c2n1",
    "IC50": "< 2 µM"
  },
  {
    "COMPOUND": "COc1ccc(-c2cc(-n3ccnc3)c3ccc(Cl)cc3n2)cc1C(=O)O",
    "IC50": "> 10 µM"
  },
  {
    "COMPOUND": "O=C(OC(C(F)(F)F)C(F)(F)F)[C@@H]1[C@@H](O)CCN1c1cc(-n2ccnc2)c2ccc(Cl)c(Cl)c2n1",
    "IC50": "< 2 µM"
  },
  {
    "COMPOUND": "CN(CCOCCC(=O)O)c1cc(-n2ccnc2)c2ccc(Cl)c(Cl)c2n1",
    "IC50": "< 2 µM"
  }
]
